Measured Target: T1, mouse His6-GITR (mouse, UniProt O35714 20-153)
T1 construct: His6-tagged recombinant protein; also called mGITR-His; mouse GITR-His
T1 sequence: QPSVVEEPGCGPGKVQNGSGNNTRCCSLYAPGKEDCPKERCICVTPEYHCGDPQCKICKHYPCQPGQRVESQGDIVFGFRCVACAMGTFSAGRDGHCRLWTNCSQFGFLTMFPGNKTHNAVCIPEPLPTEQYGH
Method Notes: ELISA, scFv periplasmic extract on coated His6-GITR
Protocol: The SuperHuman-2.0 scFv Antibody Library (available from Distributed Bio, South San Francisco, Calif.) was used to perform selection with human, cynomolgus or mouse GITR proteins. Selected phage clones from overnight growth were inoculated into wells in 96 well deep well plates containing 1 mL of medium. scFv expression was induced by addition of IPTG (Teknova) to a final concentration of 1 mM. […] Plates were read at 450 nm to determine ELISA signal from bound PPE derived scFv.

{"Binder": "GITR-Mab-35 scFv (scFv, V domains shown, scFv in periplasmic extract, V5 tag) VH: QVQLVQSGAEVKKPGASVKVSCKASGYTFTNYYMHWVRQAPGQGLEWMGLITPSGGRTKYAQKFQGRVTMTRDTSTSTVYMELSSLRSEDTAVYYCAREMEYSSSWYWFDPWGQGTLVTVSS VL: DIQMTQSPSSLSASVGDRVTITCQASQGISSYLNWYQQKPGKAPKLLIYAASTLQSGVPSRFSGSGSGTDFTLTISSLQPEDFATYYCQQSYSTPLTFGGGTKVEIK", "Measurement Unit": "fold over background", "mGITR-His/BKG": 0.9}
{"Binder": "GITR-Mab-5 scFv (scFv, V domains shown, scFv in periplasmic extract, V5 tag) VH: EVQLLESGGGLVQPGGSLRLSCAASGFTFDAYAMHWVRQAPGKGLEWVSAIGTGGDTYYADSVKGRFTISRDNSKNTLYLQMNSLRAEDTAVYYCARDLYGSGSPQYYYYYGMDVWGQGTTVTVSS VL: DIQMTQSPSSLSASVGDRVTITCRASQGIKNDLGWYQQKPGKAPKLLIYAASSLQSGVPSRFSGSGSGTDFTLTISSLQPEDFATYYCQQSYSVPFTFGQGTKVEIK", "Measurement Unit": "fold over background", "mGITR-His/BKG": 1.2}
{"Binder": "GITR-Mab-14 scFv (scFv, V domains shown, scFv in periplasmic extract, V5 tag) VH: EVQLLESGGGLVKPGGSLRLSCAASGFRFSVYWMSWVRQAPGKGLEWVSGISGSGGTTYYADSVKGRFTISRDDSKNTLYLQMNSLKTEDTAVYYCARVRRDGYNYNFDYWGQGTLVTVSS VL: DIQMTQSPSSLSASVGDRVTITCQASQDISNYLNWYQQKPGKAPKLLIFDASSLEAGVPSRFSGSGSGTDFTLTISSLQPEDFATYYCQQANSFPPTFGQGTEVEIK", "Measurement Unit": "fold over background", "mGITR-His/BKG": 0.9}
{"Binder": "GITR-Mab-28 scFv (scFv, V domains shown, scFv in periplasmic extract, V5 tag) VH: QVQLVQSGAEVKKPGASVKVSCKASGYTFPNYGITWVRQAPGQGLEWMGWMNPNSGYTGYAQNFQGRVTMTRDTSTSTVYMELSSLRSEDTAVYYCARGMPGRGFDPWGQGTLVTVSS VL: EIVMTQSPATLSVSPGERATLSCRASQSVSSNYLAWYQQKPGQAPRLLIYGASTRATGIPARFSGSGSGTEFTLTISSLQSEDFAVYYCQQYHTYPPTFGQGTKLEIK", "Measurement Unit": "fold over background", "mGITR-His/BKG": 1}
{"Binder": "GITR-Mab-23 scFv (scFv, V domains shown, scFv in periplasmic extract, V5 tag) VH: EVQLLESGGGLVQPGGSLRLSCAASGFPFSTYAIHWVRQAPGKGLEWVSAISGSGGSTYYADSVKGRFTISRDNSKNTLYLQMNSLRAEDTAVYYCAGPDWYFDLWGRGTLVTVSS VL: DIQMTQSPSSLSASVGDRVTITCRASQAISNSLAWYQQKPGKAPKLLIYAASTLQRGVPSRFSGSGSGTDFTLTISSLQPEDFATYYCQQYYSTPYTFGQGTKLEIK", "Measurement Unit": "fold over background", "mGITR-His/BKG": 0.9}
